# System: OVCAR-5 ovarian
# test: NCI-60 one-dose screen, 48 h (100 = growth as untreated, 0 = no growth, -100 = all killed)
# condition_info: 10 µM unless noted
Compounds without any hit were thinned out: in the full panel of roughly 83,000, 20% have a hit.
reported_endpoint: growth (%)
The reply should be a number in %, with the unit left off.

Qu. I have this molecule here, "COc1cc(-c2nc(SCc3ccc(C)cc3)[nH]c(=O)c2C#N)ccc1OCc1ccccc1" , and I need its recorded growth.
Ans. 105

Qu. I have this molecule here, CC(C)(C)n1nnnc1C(Nc1nccs1)c1cc2cccc3ccc4cccc1c4c32 (stereo not given) , and I need its recorded growth.
Ans. 59.7

Qu. I have this molecule here, "O=c1cc(-c2ccccc2)nc2sc(-c3c[nH]c4ccc(Br)cc34)nn12" , and I need its recorded growth.
Ans. 100

Qu. I have this molecule here, "c1ccc(-c2n(Cc3ccc4ccccc4c3)c3c4ccccc4c4ccccc4c3[n+]2Cc2ccc3ccccc3c2)cc1" , and I need its recorded growth.
Ans. -90.3

Qu. I have this molecule here, "Oc1ccc(CSc2nnc(-c3ccncc3)n2-c2ccccc2)c2cccnc12" , and I need its recorded growth.
Ans. 45.7

###

# System: SF-539 CNS
# test: NCI-60 one-dose screen, 48 h
# condition_info: 10 µM unless noted
About 83,000 compounds went through this panel and 20% of them were active in at least one assay; those are over-represented in the sample as a whole. Active and inactive are the calls of the source. How the source made its calls: active means growth percent below 10; inactive means the rest.
Write down one outcome, taken from active, inactive

Qu. Hi, do you know how "CCOC(=O)c1ccc(N/C=C/C(=O)c2ccccc2)cc1" came out in this test?
Ans. inactive

Qu. Hi, do you know how "O=C(O)CNS(=O)(=O)c1ccc(Oc2ccc(S(=O)(=O)NCC(=O)O)cc2)cc1" came out in this test?
Ans. inactive

Qu. Hi, do you know how "N/C(=N\OC(=O)CSc1nc2ccccc2s1)c1ccc(Cl)cc1" came out in this test?
Ans. inactive

Qu. Hi, do you know how "C=C(C)[C@@H]1CC[C@]2(C)[C@H](CC=C3[C@@H]4CC(C)(C)CC[C@]4(C(=O)NCC#CCN4CCN(C)CC4)CC[C@]32C)[C@@]1(C)CCC#N" came out in this test?
Ans. inactive

Qu. Hi, do you know how CCOC(=O)/C=c1\sc2n(c1=O)C1C(NN=2)N(CC)C(=O)N1CC (stereo not drawn) came out in this test?
Ans. inactive

Qu. Hi, do you know how "Oc1ccccc1/C=N/Nc1nc(N/N=C/c2ccccc2O)nc(N2CCOCC2)n1" came out in this test?
Ans. inactive

Qu. Hi, do you know how "COc1ccc(-c2cc(-c3cccc4ccccc34)n3c(n2)nc2ccccc23)cc1" came out in this test?
Ans. inactive

Qu. Hi, do you know how "COc1ccc(NC(=O)Cn2cc(CN3C(=O)c4ccc([N+](=O)[O-])cc4C3=O)nn2)cc1" came out in this test?
Ans. inactive

Qu. Hi, do you know how "O=C(COc1ccc(/C=C2\SC(=O)NC2=O)cc1)Nc1ccc(C(=O)/C=C/c2cc3ccccc3nc2Cl)cc1" came out in this test?
Ans. inactive

Qu. Hi, do you know how "O=C1Nc2cc(OC(F)(F)F)ccc2Oc2ccc(-c3ccnc(N4CC[C@H](O)C4)c3)cc21" came out in this test?
Ans. active

Qu. Hi, do you know how "COc1ccc(-c2no[n+]([O-])c2Nc2ccccc2Br)cc1" came out in this test?
Ans. inactive

Qu. Hi, do you know how "CCc1ccc(NC(=O)N[C@@H](Cc2cccc(F)c2)C(=O)N[C@@H]2C(=O)N3CCC[C@H]3C(=O)N3CCCC[C@H]3C(=O)N[C@@H](C)C(=O)N3C[C@H](C)C[C@H]3C(=O)O[C@H]2C)c(F)c1" came out in this test?
Ans. inactive

Qu. Hi, do you know how "C#C[C@]1(O)CC[C@H]2[C@@H]3CC=C4c5sc(-c6cccc(F)c6)nc5CC[C@]4(C)[C@H]3CC[C@@]21C" came out in this test?
Ans. inactive

Qu. Hi, do you know how "N/C(=N\c1nc2ccc([N+](=O)[O-])cc2s1)C(Cl)(Cl)Cl" came out in this test?
Ans. inactive

Qu. Hi, do you know how "CCNC(=NCCCN(C)C)N/C(N)=N/c1nc2ccccc2s1" came out in this test?
Ans. inactive

Qu. Hi, do you know how "CC[C@@](C)(NC(=O)C(C)(C)NC(=O)[C@@H](NC(=O)[C@@H]1CCCN1C(=O)C(C)(C)NC(=O)[C@H](CC(C)C)NC(=O)CNC(=O)C(C)(C)NC(=O)[C@@H](NC(=O)C(C)(C)NC(=O)[C@H](CCC(N)=O)NC(=O)[C@H](C)NC(=O)C(C)(C)NC(=O)[C@H](C)NC(=O)C(C)(C)NC(=O)[C@H](C)NC(=O)C(C)(C)NC(C)=O)C(C)C)C(C)C)C(=O)N[C@@H](CCC(N)=O)C(=O)N[C@@H](CCC(N)=O)C(=O)N[C@H](CO)CC1CCCCC1" came out in this test?
Ans. inactive

Qu. Hi, do you know how CCC(C)[C@H]1OC(=O)[C@H](C(C)C)N(C)C(=O)[C@@H](C(C)C)OC(=O)[C@H](C(C)C)N(C)C(=O)[C@@H](C(C)CC)OC(=O)[C@H](C(C)C)N(C)C1=O (stereo partly drawn) came out in this test?
Ans. inactive

Qu. Hi, do you know how "COc1cc(/C=N/Nc2ccnc3cc(Cl)ccc23)cc(OC)c1O" came out in this test?
Ans. active

Qu. Hi, do you know how "O=C(CCCCCCN1CC(=O)N2[C@@H](c3cccc(Br)c3)c3[nH]c4ccccc4c3C[C@H]2C1=O)NO" came out in this test?
Ans. inactive

Qu. Hi, do you know how COc1ccc(N2C(=O)c3cc(OC)c(OC)cc3NC2SCc2ccccc2)cc1 (stereo not drawn) came out in this test?
Ans. inactive

Qu. Hi, do you know how "Cc1cc(=O)n2nc(-c3cn(C)c4ccc(Cl)cc34)sc2n1" came out in this test?
Ans. inactive

Qu. Hi, do you know how CCCC(=O)NC(c1cccnc1)c1ccc2c(C)ccnc2c1O (stereo not drawn) came out in this test?
Ans. inactive

Qu. Hi, do you know how "Cc1cc(O)c2c(c1)C(=O)C(c1c(C)cc3c(c1O)C(=O)C=CC3=O)=CC2=O" came out in this test?
Ans. inactive

Qu. Hi, do you know how CCN1C(=O)N(CC)C2SC(N/N=C/C=C/c3ccccc3OC)=NC21 (stereo not drawn) came out in this test?
Ans. active

Qu. Hi, do you know how CS(=O)c1nccc(-c2c(-c3ccc(F)c(OCCc4ccccc4)c3)nc3sccn23)n1 (stereo not drawn) came out in this test?
Ans. inactive

Qu. Hi, do you know how "Clc1ccccc1/C=C/c1nn2c(-c3ccncc3)nnc2s1" came out in this test?
Ans. inactive

Qu. Hi, do you know how "COC(=O)c1nc(-c2ccc(C)cc2)oc1S(=O)(=O)N1CCN(c2oc(-c3ccccc3)nc2C#N)CC1" came out in this test?
Ans. inactive

Qu. Hi, do you know how "Cc1ccc(/C=C/c2nn3c(-c4ccco4)nnc3s2)cc1" came out in this test?
Ans. inactive

Qu. Hi, do you know how "NCCN1CCN(c2nc(-c3ccccc3)nc3nc(-c4ccccc4)oc23)CC1" came out in this test?
Ans. active

Qu. Hi, do you know how "Oc1ccc(CSc2nnc(-c3ccncc3)n2-c2ccccc2)c2cccnc12" came out in this test?
Ans. inactive

Qu. Hi, do you know how "C#C[C@]1(O)CC[C@H]2[C@@H]3CC=C4c5sc(Nc6cc(OC)ccc6OC)nc5CC[C@]4(C)[C@H]3CC[C@@]21C" came out in this test?
Ans. active

Qu. Hi, do you know how "O=C1/C(=C/c2ccccc2[N+](=O)[O-])Oc2ccc(O)cc21" came out in this test?
Ans. inactive

Qu. Hi, do you know how "COc1ccc(OC)c([C@H]2c3[nH]c4ccccc4c3C[C@H]3C(=O)N(CCCCCCC(=O)NO)CC(=O)N23)c1" came out in this test?
Ans. inactive

###

# System: SF-268 CNS
# test: NCI-60 one-dose screen, 48 h
# condition_info: 10 µM unless noted
# Procedure: Cells are grown in 96 well plates and exposed to the test compound for 48 hours. Compounds are tested at a single concentration, which is 10^-5 M for most compounds. The reported endpoint is percent growth (GI% or GIPRCNT), where numbers from 0 - 100% represent growth inhibition, and numbers from -100% - 0 represent cell death. For example, a value of 40 represents 60% growth inhibition. A value of 0 means no net growth occurred over the course of the experiment. […]
The panel holds about 83,000 compounds, 20% with a hit somewhere; the sample as a whole holds those more often. Calls of active or inactive are those of the source. How the source made its calls: active means growth percent below 10; inactive means the rest.
Write down one outcome, taken from label 1 = active, label 0 = inactive

Qu. Hi, do you know how "Clc1ccc(-c2csc(N/N=C/c3nc4ccccc4n3C3CC3)n2)cc1" came out in this test?
Ans. label 0

Qu. Hi, do you know how "O=C1[C@H]2Cc3c([nH]c4ccccc34)[C@@H](c3ccc(Cl)cc3)N2C(=O)CN1C1CCN(Cc2c(Cl)cccc2Cl)CC1" came out in this test?
Ans. label 0

Qu. Hi, do you know how "NCCN1CCN(c2nc(-c3ccccc3)nc3nc(-c4ccccc4)oc23)CC1" came out in this test?
Ans. label 1

Qu. Hi, do you know how "O=C1c2c(c3c4cc(Br)ccc4[nH]c3c3ccc4ccccc4c23)C(=O)N1CCN1CCNCC1" came out in this test?
Ans. label 0

Qu. Hi, do you know how "CCCCCCNC(=O)Oc1ccc(/C(=C(\C)c2ccc(OC)cc2)c2ccc(OCCN(C)C)cc2)cc1" came out in this test?
Ans. label 0

Qu. Hi, do you know how "O=C1c2c(c3c4cccnc4[nH]c3c3ccc4ccccc4c23)C(=O)N1CCN1CCOCC1" came out in this test?
Ans. label 0

Qu. Hi, do you know how "C=C(C)C(=O)O[C@H]1C[C@@]2(C)OC(=CC2=O)/C(CO)=C\[C@H]2OC(=O)C(=C)[C@H]12" came out in this test?
Ans. label 1

Qu. Hi, do you know how "Cc1ccc(-n2cc(/C=C/C(=O)c3ccc(S(C)(=O)=O)cc3)c(-c3ccc(S(C)(=O)=O)cc3)n2)cc1" came out in this test?
Ans. label 0

Qu. Hi, do you know how "C/C=C/C=C1\C[C@H]2CO[C@H](O2)C1=O" came out in this test?
Ans. label 0
